The measurements presented in this section are drawn from patent US20210087195A1.

Assay text: Solubility in organic solvents (incremental solvent addition)
Assay type: physicochemical
Condition label: 2-methyltetrahydrofuran, organic solvent or mixture, thermodynamic from solid, 2-methyltetrahydrofuran; read-out: Solubility

| Molecule | Solubility |
| --- | --- |
| CC#CC(=O)N1CCC[C@H]1c1nc(-c2ccc(C(=O)Nc3ccccn3)cc2)c2c(N)nccn12 [Form K1] | > 17.6 mg/mL |

---

Assay text: Solubility in buffers of pH 7.0, 7.4 and 8.7 (HPLC)
Assay type: physicochemical
Condition label: phosphate buffer, pH 7.4, aqueous buffer, thermodynamic from solid, pH = 7.4 phosphate aqueous solution; read-out: Solubility after equilibration for 2 hours

| Compound | Unit symbol | solubility at 2 h |
| --- | --- | --- |
| CC#CC(=O)N1CCC[C@H]1c1nc(-c2ccc(C(=O)Nc3ccccn3)cc2)c2c(N)nccn12 [Form K1] | µg/mL | 69 |

---

Assay text: Solubility in buffers of pH 7.0, 7.4 and 8.7 (HPLC)
Format: physicochemical
Condition label: phosphate buffer, pH 8.7, aqueous buffer, thermodynamic from solid, pH = 8.7 phosphate aqueous solution; read-out: Solubility after equilibration for 2 hours
Measurement name: solubility at 2 h (µg/mL)

| Compound | Measurement name | Value measured |
| --- | --- | --- |
| CC#CC(=O)N1CCC[C@H]1c1nc(-c2ccc(C(=O)Nc3ccccn3)cc2)c2c(N)nccn12 [Form K1] | solubility at 2 h | 66 |

---

Assay text: Solubility in organic solvents (incremental solvent addition)
Assay type: physicochemical
Condition label: methyl isobutyl ketone, organic solvent or mixture, thermodynamic from solid, Methyl isobutyl ketone; read-out: Solubility
Measurement name: Solubility

| Compound | Measurement name | Value measured |
| --- | --- | --- |
| CC#CC(=O)N1CCC[C@H]1c1nc(-c2ccc(C(=O)Nc3ccccn3)cc2)c2c(N)nccn12 [Form K1] | Solubility | > 10000 µg/mL |

---

Assay text: Solubility in organic solvents (incremental solvent addition)
Format: physicochemical
Condition label: ethyl acetate, organic solvent or mixture, thermodynamic from solid, Ethyl acetate; read-out: Solubility

| Compound | Solubility |
| --- | --- |
| CC#CC(=O)N1CCC[C@H]1c1nc(-c2ccc(C(=O)Nc3ccccn3)cc2)c2c(N)nccn12 [Form K1] | > 13.2 mg/mL |
